# Test system: Mu-type opioid receptor (Rattus norvegicus)
# Sequence (P33535 whole entry): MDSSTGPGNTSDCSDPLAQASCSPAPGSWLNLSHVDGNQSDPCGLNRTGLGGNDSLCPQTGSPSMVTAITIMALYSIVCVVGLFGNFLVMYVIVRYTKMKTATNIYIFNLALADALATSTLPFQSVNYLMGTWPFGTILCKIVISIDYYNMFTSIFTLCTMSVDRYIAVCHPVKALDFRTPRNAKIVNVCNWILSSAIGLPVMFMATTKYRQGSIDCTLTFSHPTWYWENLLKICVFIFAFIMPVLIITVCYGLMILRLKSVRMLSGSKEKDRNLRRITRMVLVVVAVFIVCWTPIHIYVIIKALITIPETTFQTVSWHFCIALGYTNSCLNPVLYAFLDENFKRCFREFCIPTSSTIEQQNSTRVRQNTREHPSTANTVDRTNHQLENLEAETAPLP
Property name: IC50
Answer as a quantity: numeral, then unit.

Provide value of IC50 for this record tested with Mu-type opioid receptor (Rattus norvegicus): `CN[C@@H](Cc1ccc(O)cc1)CN(C)[C@H](CNCc1ccccc1)Cc1ccc(O)cc1` 2 nM

Hey, just so you know, these numbers are from BindingDB's records for doi:10.1016/j.bmcl.2006.05.053.
